tested on: 4 PI3K isoforms (Human recombinant GST-PI3K); test: PI3K scintillation proximity assay, best IC50 obtained with the four isoforms (alpha, beta, delta, gamma); assay type: biochemical; details: best IC50 obtained with the four isoforms of PI3K; read-out: Best potency measured on the 4 PI3K isoforms
Experimental Readout: IC50 (nM)
Hi! Could you send only the number? It should be in nM, unit omitted.

Some solved cases for reference:
{"Compound": "COCCN1CCC(Cn2nc(C(=O)N3CCOCC3)c3c2-c2ccccc2S(=O)(=O)C3)CC1", "Experimental Readout": "IC50", "Observed Measurement": 681}
{"Compound": "O=C(c1nn(-c2cccc(CN3CCC(O)CC3)c2)c2c1CS(=O)(=O)c1ccccc1-2)N1CCOCC1", "Experimental Readout": "IC50", "Observed Measurement": 573}
{"Compound": "O=C(c1ccoc1)N1CCC[C@H](n2nc(C(=O)N3CCOCC3)c3c2-c2ccccc2S(=O)(=O)C3)C1", "Experimental Readout": "IC50", "Observed Measurement": 750}

Value lookup for IC50; key = COC1CCCN(C(=O)c2cccc(-n3nc(C(=O)N4CCOCC4)c4c3-c3ccccc3S(=O)(=O)C4)c2)C1 (centres unmarked) 246

Quick check: IC50 of `COc1cccc(Cn2nc(C(=O)N3CCOCC3)c3c2-c2ccccc2S(=O)(=O)C3)c1` ? 1170

Look up IC50 for this compound: COCCOCCN1CCCC(n2nc(C(=O)N3CCOCC3)c3c2-c2ccccc2S(=O)(=O)C3)C1 (centres unmarked) 635

GET /values?readout=IC50&item= `O=C(c1nn(-c2cccc(-c3cccnc3)c2)c2c1CS(=O)(=O)c1ccccc1-2)N1CCOCC1` 280

What value of IC50 has been recorded for this entry: `CN(C)CCn1nc(C(=O)N2CCOCC2)c2c1-c1ccccc1S(=O)(=O)C2` 1500
